assayedTarget: ENPP1 expressed by MCF-7 cells (Homo sapiens (Human), UniProt P22413)
Sequence (P22413 whole entry): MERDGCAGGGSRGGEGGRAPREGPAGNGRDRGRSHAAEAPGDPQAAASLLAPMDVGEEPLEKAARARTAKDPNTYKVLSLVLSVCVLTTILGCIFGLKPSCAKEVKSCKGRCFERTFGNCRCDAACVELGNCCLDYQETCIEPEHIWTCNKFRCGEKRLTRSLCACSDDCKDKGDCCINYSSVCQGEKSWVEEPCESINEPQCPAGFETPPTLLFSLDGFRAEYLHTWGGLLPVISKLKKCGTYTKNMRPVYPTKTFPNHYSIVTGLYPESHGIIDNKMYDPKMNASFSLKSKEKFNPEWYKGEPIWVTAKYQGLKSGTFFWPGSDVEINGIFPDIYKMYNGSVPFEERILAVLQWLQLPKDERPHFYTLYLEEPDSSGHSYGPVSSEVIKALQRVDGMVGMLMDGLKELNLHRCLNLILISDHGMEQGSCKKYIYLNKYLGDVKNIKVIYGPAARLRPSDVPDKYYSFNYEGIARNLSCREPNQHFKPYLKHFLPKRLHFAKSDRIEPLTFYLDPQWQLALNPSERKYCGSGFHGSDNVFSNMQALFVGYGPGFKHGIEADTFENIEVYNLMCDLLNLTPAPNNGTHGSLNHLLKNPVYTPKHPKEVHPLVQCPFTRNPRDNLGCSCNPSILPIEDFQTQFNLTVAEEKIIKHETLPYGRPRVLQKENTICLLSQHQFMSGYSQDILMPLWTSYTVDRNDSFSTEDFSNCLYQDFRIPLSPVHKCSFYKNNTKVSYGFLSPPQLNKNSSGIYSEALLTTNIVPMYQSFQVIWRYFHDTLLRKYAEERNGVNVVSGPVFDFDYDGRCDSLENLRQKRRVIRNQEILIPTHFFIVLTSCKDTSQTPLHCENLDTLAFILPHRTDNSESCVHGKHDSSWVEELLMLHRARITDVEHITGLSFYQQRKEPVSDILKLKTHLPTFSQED
assayProtocol: cell-based
metric: EC50 (nM)

Cc1cc(Cn2cc(C(C)C)c(=O)n3nc(C4CC4)nc23)ccc1[S@](C)(=N)=O (single isomer, unassigned) [Compound 65]: 39.8

(1) CC(C)c1cn(Cc2ccc(S(N)(=O)=O)c(-c3ccccc3)n2)c2nc(C3CC3)nn2c1=O [Compound 27]
(2) CC(C)c1cn(Cc2ccc(S(=N)(=O)C3CC3)cc2)c2nc(C3CC3)nn2c1=O (stereo not drawn) [Compound 54]
Between 1 and 2 , which one shows the smaller EC50 number? Bench note: the answer is the label of the chosen record. 2
(2: 39.8 nM, 1: 251 nM)
